Tested on: Fibroblast
Assay info: Incucyte cell viability with human fibroblast; further: unitless GR value; below 1 slowed growth and below 0 cell loss
Assay type: toxicity, cell-based
Condition info: 12 h, 10 µM, compound concentration 10 uM, replicate number 2
Returns: string. Value is 1 if measured Growth Rate is below 0.3, and -1 if it is greater than or equal to it.

> print(dat)
                                   molecule  assigned.label
1  O=C(CNC(=O)c1ccc(-c2ccccc2)cc1)NC1CCCc2ccccc21 (stereo not given)               1
2  CNC(=O)c1c(F)cccc1Nc1nc(Nc2cc3c(cc2OC)CCN3C(=O)CN(C)C)nc2[nH]ccc12               1
3  Cc1cc(C)c(NC(=O)C2CC3CCC2C3)c(C)c1 (stereo not given)              -1
4  Cc1ccc(NC(=O)c2ccc(CN3CC[C@H](N(C)C)C3)c(C(F)(F)F)c2)cc1Nc1nccc(-c2cncnc2)n1 [BAFETINIB]               1

Turning to the following molecule.
Q: Dear reviewer, please state whether CC1(C)CCC[C@]2(C)[C@@H](C=O)C(C=O)=CC[C@@H]12 [POLYGODIAL] has Growth Rate strictly beneath 0.3.
Ans: -1

Values were extracted from ChEMBL document CHEMBL5303304.
